# Test system: NCI-H508 cells
# run description: MTT cytotoxicity assay, NCI-H508 cells
# Format: cell-based
# condition label: Homo sapiens, 72 h post-treatment, read-out: IC50 (µM) BRAF NCI-H508
Items are presented alongside their recorded IC50.
Please reply with the bare figure in µM and do not write the unit itself.

O=C1C(=Cc2ccc(F)c(F)c2)CCCC1=Cc1ccc(F)c(F)c1    3.3
COc1ccccc1C=C1CSCC(=Cc2ccccc2OC)C1=O    5.3
O=c1[nH]cc(F)c(=O)[nH]1 [Compound 5-FU, 5-fluorouracil, reference compound]    8.6
O=C1C(=Cc2ccccc2Br)CSCC1=Cc1ccccc1Br    1.1
O=C1C(=Cc2ccc(F)c(F)c2)CSCC1=Cc1ccc(F)c(F)c1    6.2

Next item in the queue.
For this molecule ( O=C1C(=Cc2ccccc2Br)CCCC1=Cc1ccccc1Br ), measured IC50 is 7.8

All values here come from paper PMC7504466.
